Measured values drawn from PubChem BioAssay AID1159580 for this set.

Provide the reported normalized growth of each item.
Run description: chemical genetic growth profiling, strain panel (AID 1159580);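 note: tested at 20 µM; growth read once vehicle control cultures reached saturation at 30 °C; 1 = growth at the plate median or of vehicle wells; lower values mean less growth of the strain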
Run conditions: S. cerevisiae deletion strains, growth OD, locus YDL040C, strain nat1, stronger effect = lower value
In all, about 5,500 compounds went through this assay and about 2,000 (36%) were called active. Not shown: some 18% with an inconclusive outcome. The list shows a part of the results.

Example molecules with recorded normalized growth:
| Molecule | normalized growth |
| --- | --- |
| COc1ccc(C2C(=O)c3ccccc3C2=O)cc1 | 1.02 (inactive) |
| O=C(CCBr)N1CCN(C(=O)CCBr)CC1 | 1.02 (inactive) |
| CC1=NN(c2ccccc2)C(=O)C1 | 0.978 (inactive) |
| CC[C@H]1OC(=O)[C@H](C)[C@@H](O[C@H]2C[C@@](C)(OC)[C@@H](O)[C@H](C)O2)[C@H](C)[C@@H](O[C@@H]2O[C@H](C)C[C@H](N(C)C)[C@H]2O)[C@](C)(O)C[C@@H](C)[C@@H]2N[C@@H](COCCOC)O[C@H]([C@H]2C)[C@]1(C)O | 0.996 (inactive) |
| CCOc1ccc(C(=O)c2cc(O)c(OC)c(OC)c2O)cc1 | 1.01 (inactive) |
| COc1cnc(NS(=O)(=O)c2ccc(N)cc2)nc1 | 1 (inactive) |
| CC1=CC2C(C(C)C)CCC(C)(O)C2CC1 (centres undefined) | 0.987 (inactive) |
| Cc1c(NC(=O)c2cccnc2)c(=O)n(-c2ccccc2)n1C | 0.988 (inactive) |

Would you kindly look at the next entry?
Can you look up the measured normalized growth of `O=C(NC1CCCCC1)NC1CCCCC1` for me?
0.981 (inactive)

* * *

Run description: chemical genetic growth profiling, strain panel (AID 1159580);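 note: tested at 20 µM; growth read once vehicle control cultures reached saturation at 30 °C; 1 = growth at the plate median or of vehicle wells; lower values mean less growth of the strain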
Run conditions: S. cerevisiae deletion strains, growth OD, locus YHR030C, strain SLT2
Out of some 5,500 compounds screened, about 2,000 (36%) were called active. Inconclusive results (about 18%) are left out. Cut-off read from the data, not from the text of the source: active = normalized growth mostly below about 0.91 (no sharp cut-off); inconclusive = no clear call, values can overlap the other calls; inactive = mostly above about 0.92. The list shows a part of the results.
Choose one outcome from this list and give only that: 1 for active, -1 for inactive

| Compound structure string | Group |
| --- | --- |
| c1ccc([C@H]2CN3CCSC3=N2)cc1 | -1 |
| COc1ccc2c(=O)ccoc2c1 | -1 |
| CNCC[C@@H](Oc1ccccc1)c1ccccc1 | -1 |
| CC1=NN(c2cccc(S(N)(=O)=O)c2)C(=O)C1 | -1 |

Per the records of this test, what outcome belongs to `CCNc1nc(Cl)nc(NCC)n1` ?
-1

Per the records of this test, what outcome belongs to `O=c1cc(C(F)(F)F)[nH]c2cc(Cl)cc(Cl)c12` ?
1

Per the records of this test, what outcome belongs to `O=C(NC1CCCCC1)NC1CCCCC1` ?
-1

Per the records of this test, what outcome belongs to `O=C(O)c1cc(=O)c2c(Cl)cc(Cl)cc2[nH]1` ?
-1

Per the records of this test, what outcome belongs to `CC1=NN(c2ccccc2)C(=O)C1` ?
-1

Per the records of this test, what outcome belongs to `CC(C)(C)c1ccc(CSc2nc(N)cc(=O)[nH]2)cc1` ?
-1

* * *

Provide the reported normalized growth of each item.
Run description: chemical genetic growth profiling, strain panel (AID 1159580);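 note: tested at 20 µM; growth read once vehicle control cultures reached saturation at 30 °C; 1 = growth at the plate median or of vehicle wells; lower values mean less growth of the strain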
Run conditions: S. cerevisiae deletion strains, growth OD, locus YLR342W, strain FKS1 (second series), stronger effect = lower value
About 2,000 (36%) of roughly 5,500 compounds were called active. About 18% were inconclusive and are not listed. Some of the results follow.

Example molecules with recorded normalized growth:
| Molecule | Result |
| --- | --- |
| CC[C@@H](CO)NC(=O)[C@@H]1C=C2c3cccc4[nH]cc(c34)C[C@H]2N(C)C1 | 0.983 (inactive) |
| COc1cc(-c2coc3cc(O[C@@H]4O[C@H](CO)[C@@H](O)[C@H](O)[C@H]4O)c(OC)c(O)c3c2=O)cc(O)c1OC | 1.05 (inactive) |
| COc1ccc(C(=O)c2ccc(O)cc2)c(O)c1O | 1.02 (inactive) |
| CC1=NN(c2ccccc2)C(=O)C1 | 0.832 (inactive) |
| C=C(C)[C@H]1Cc2c(ccc3c2O[C@@H]2COc4cc(OC)c(OC)cc4[C@@H]2C3=O)O1 | 1.02 (inactive) |

Below are some molecules; for each one, tell me its normalized growth.
1. CCOC([O-])=Nc1c[n+](N2CCOCC2)no1
2. CC(NCCC(c1ccccc1)c1ccccc1)c1ccccc1 (stereo unspecified)
3. CCOc1ccc(C(=O)c2cc(O)c(OC)c(OC)c2O)cc1
4. CN1C(=O)CCS(=O)(=O)C1c1ccc(Cl)cc1 (stereo unspecified)
5. CO[C@H]1C[C@H](O[C@H]2[C@H](C)[C@@H](OC3O[C@H](C)C[C@H](N(C)C)[C@H]3OC(C)=O)[C@@H](C)C[C@]3(CO3)C(=O)[C@H](C)[C@@H](OC(C)=O)[C@@H](C)[C@@H](C)OC(=O)[C@@H]2C)O[C@@H](C)[C@@H]1OC(C)=O (stereo partly specified)

["1.02 (inactive)", "0.885 (inactive)", "0.952 (inactive)", "1.01 (inactive)", "0.983 (inactive)"]

Can you look up the measured normalized growth of `NC(N)=NC(N)=Nc1ccccc1` for me?
1.02 (inactive)
